The reported numbers originate from paper PMC9385543.

experiment: In vitro cytotoxicity assay; format: cell-based, horse; conditions: horse, PHA-stimulated horse PBMCs
Recorded metric: CC50 at 24 h (mM)
Give the value in mM but do not write mM after it.

The value of CC50 at 24 h measured for the molecule C[N+](C)(C)CCCCCCCCCC[N+](C)(C)C [DMB, Decamethonium bromide] turned out to be 7.2

* * *

test system: Theileria equi; assay: In vitro growth inhibitory assay of Theileria equi in MASP culture; format: cell-based; conditions: Theileria equi, 96 h, read-out: IC50 value for growth inhibition of T. equi
Recorded metric: pIC50
Scale note: pIC50 = -log10(concentration in M).

Recorded result, C[N+](C)(C)CCCCCCCCCC[N+](C)(C)C [DMB, Decamethonium bromide] , pIC50: 4.85
